Please respond with reported IC50 for every item in the list.
Numbers only; they are read as nM.

Problem: Tell me its IC50 on UniProt P23458: O=c1[nH]c2cnc3[nH]ccc3c2n1C1CCOCC1
Sequence (P23458 whole entry): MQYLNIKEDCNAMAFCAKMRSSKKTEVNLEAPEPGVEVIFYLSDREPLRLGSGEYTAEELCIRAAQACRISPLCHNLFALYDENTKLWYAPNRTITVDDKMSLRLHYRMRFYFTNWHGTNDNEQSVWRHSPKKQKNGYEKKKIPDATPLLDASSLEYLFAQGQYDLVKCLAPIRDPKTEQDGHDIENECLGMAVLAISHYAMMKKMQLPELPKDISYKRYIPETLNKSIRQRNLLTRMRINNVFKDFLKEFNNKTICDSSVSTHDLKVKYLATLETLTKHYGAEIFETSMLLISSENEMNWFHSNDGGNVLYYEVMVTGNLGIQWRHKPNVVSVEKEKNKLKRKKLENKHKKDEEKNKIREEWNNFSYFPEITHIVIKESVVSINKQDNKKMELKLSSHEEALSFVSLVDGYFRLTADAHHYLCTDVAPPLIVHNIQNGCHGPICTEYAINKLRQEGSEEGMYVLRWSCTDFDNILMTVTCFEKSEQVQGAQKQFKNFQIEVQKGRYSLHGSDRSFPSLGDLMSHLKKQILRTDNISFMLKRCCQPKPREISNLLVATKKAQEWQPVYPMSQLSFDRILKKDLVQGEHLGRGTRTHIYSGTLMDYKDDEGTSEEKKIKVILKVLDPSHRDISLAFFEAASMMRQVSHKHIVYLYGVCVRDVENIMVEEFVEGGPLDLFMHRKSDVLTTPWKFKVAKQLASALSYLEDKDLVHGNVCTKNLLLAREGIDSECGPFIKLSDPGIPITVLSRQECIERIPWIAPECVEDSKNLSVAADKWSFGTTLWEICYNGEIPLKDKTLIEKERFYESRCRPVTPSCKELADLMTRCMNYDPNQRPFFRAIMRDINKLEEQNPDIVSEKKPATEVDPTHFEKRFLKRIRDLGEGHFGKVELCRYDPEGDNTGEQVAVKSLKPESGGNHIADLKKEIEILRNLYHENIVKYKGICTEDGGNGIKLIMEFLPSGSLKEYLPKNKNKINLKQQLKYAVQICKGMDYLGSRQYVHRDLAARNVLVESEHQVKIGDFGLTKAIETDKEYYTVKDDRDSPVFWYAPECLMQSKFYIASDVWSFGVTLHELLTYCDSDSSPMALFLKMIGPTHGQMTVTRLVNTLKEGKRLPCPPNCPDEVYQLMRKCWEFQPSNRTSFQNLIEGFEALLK
Solution: 520

Problem: Would you please give the reported IC50 of N#CCC(=O)N1CCC[C@@H](n2c(=O)[nH]c3cnc4[nH]ccc4c32)C1 with UniProt P23458?
Solution: 20

Problem: Please indicate recorded IC50 of CC1CCC(n2c(=O)[nH]c3cnc4[nH]ccc4c32)CC1 (configuration not stated) measured with UniProt P23458.
Solution: 24

Problem: Look up and report measured IC50 (UniProt P23458) for the following compound: CS(=O)(=O)N1CCC[C@@H](n2c(=O)[nH]c3cnc4[nH]ccc4c32)C1
Solution: 230

Problem: Print UniProt P23458 IC50 for O=c1[nH]c2cnc3[nH]ccc3c2n1CC1CCCCC1 .
Solution: 1000

Problem: Please tell me the measured IC50 for C[C@@H]1CCCC[C@@H]1n1c(=O)[nH]c2cnc3[nH]ccc3c21 ; system: UniProt P23458.
Solution: 14

Problem: State IC50 (UniProt P23458) of CN(c1ccnc2[nH]ccc12)C1CCCCC1 .
Solution: 2900
